B1: CPEB3 Ribozyme (parent)
chain: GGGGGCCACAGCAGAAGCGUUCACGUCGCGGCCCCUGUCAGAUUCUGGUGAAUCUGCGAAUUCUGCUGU

Variants of: B1
Assay Text: self-cleavage, relative activity (ratio to wild type); higher = more cleavage; co-transcriptional
Measured Property: self-cleavage
Would you mind answering with just the numeric figure?

As a guide, the following entries are already answered.
GGGGGCCACAGCAGAAGCGUUCACGUCGCGGCCCCUGUCAGAUUCUGGUGAAUCUGCAAAUCCUGCUGU [G58A U62C] : 0.872
GAGGGCCACAGCAGAAGCGUUCACGUCGCCGCCCCUGUCAGAUUCUGGUGAAUCUGCGAAUUCUGCUGU [G2A G30C] : 0.0605
GGGGGCCACAGCAGAAGCGUUCACGUCGCGGCACCUGUCAGAUCCUGGUGAAUCUGCGAAUUCUGCUGU [C33A U44C] : 0.656
GGGGGCCACAGCAGAAGCGUUCACGUCGUGGCCCCUGUCAGAUUCUGGUGAGUCUGCGAAUUCUGCUGU [C29U A52G] : 0.529
GGGGGCCACAGCAGAAGCGUUCACGUCGCGGCCCCUGACAGAUUCUGGUGAAUCUGCUAAUUCUGCUGU [U38A G58U] : 0.936
GGGGGCCACAGCAGAACCGUUCACGUCGCGGCCCCUGUCAGAUUCUGGUGAAUCUUCGAAUUCUGCUGU [G17C G56U] : 0.115

Input line: Using the record for GGGGGCCACAGCAGAAGCGUUCACGUCGCGGCACCUGUCAGAUUCUGGUGAAUCUGCGAUUUCUGCUGU [C33A A60U] , report its self-cleavage.
Output line: 0.38

Input line: I'd like to know its self-cleavage. The variant in question is GGGGGCCACAGCAGAAGCGUUCACGUCGCGGCCCCUGUCAGAUACUGGUGAUUCUGCGAAUUCUGCUGU [U44A A52U]
Output line: 0.969

Input line: # query: self-cleavage of entry GGGGGCCACAGGAGAAGCGUUCACGUCGCGGCCCCUGUCAGAUUCUGGUGAAUCUGCGAAUUCUGUUGU [C12G C66U]
Output line: 0.69

Input line: I am curious: what self-cleavage value has been reported for GGGGGGCACAGCAGAAGCGUUCACGUCGCGGCCCCUGUCAGAUUCUGGUGAAUCUUCGAAUUCUGCUGU [C6G G56U] ?
Output line: 0.152

Input line: # lookup: self-cleavage of GGGCGCCACAGCAGAAGCGUUCACGUCGCGGCCCCUGUCAGAUUCUGGUGAAACUGCGAAUUCUGCUGU [G4C U53A]
Output line: 0.316

The values you see were collected from the RNAGym collection of RNA variant scans (doi:10.7554/elife.80360).
